Hey, just so you know, these numbers are from paper PMC6222450.

A set of compounds tested on 5-HT7bR (Homo sapiens, UniProt P34969), with measured Ki:
Supply the numeric figure in nM, leaving out any unit text.

Solved cases (3 shown):
>  <compound>
CN1CCN(c2nc(N)nc(CN3C(=O)N(Cc4cc(Cl)ccc4Cl)C(C)(C)C3=O)n2)CC1 [Compound 11]

>  <Ki / nM>
279

$$$$
>  <compound>
CN1CCN(c2nc(N)nc(CN3C(=O)NC(C)(c4cccc(Cl)c4)C3=O)n2)CC1 (stereo not shown) [Compound 20]

>  <Ki / nM>
791

$$$$
>  <compound>
CN1CCN(c2nc(N)nc(CN3C(=O)N(Cc4ccccc4)C(C)(C)C3=O)n2)CC1 [Compound 9]

>  <Ki / nM>
350

$$$$

Now look at this entry.
Give the measured Ki of CN1CCN(c2nc(N)nc(CN3C(=O)N(Cc4cccc(F)c4)C(C)(C)C3=O)n2)CC1 [Compound 14] . 88
